Provide the recorded pIC50 for the entries that follow.
Test system: A549
Assay Remarks: Cytotoxicity against human A549 cells assessed as reduction in cell viability after 48 hrs by CCK8 assay
Type: functional, cell-based
Condition Context: A549, 48 h
Quick note: pIC50 means taking -log10 of the concentration in moles per liter.

Query: # return recorded pIC50 for input Cc1cc2c(o1)C(=O)c1cc3c(c(O)c1C2=O)C(=O)CCCC3(C)C
Response: 4.98

Query: Report measured pIC50; entry is C[C@@]12CC[C@@H](OC1=O)c1c2cc(O)c2c1C(=O)c1oc(CO)cc1C2=O
Response: 5.32
